Biological target: Recombinant human GCPII (Homo sapiens, UniProt Q04609)
Construct: made in house
Sequence (Q04609 whole entry): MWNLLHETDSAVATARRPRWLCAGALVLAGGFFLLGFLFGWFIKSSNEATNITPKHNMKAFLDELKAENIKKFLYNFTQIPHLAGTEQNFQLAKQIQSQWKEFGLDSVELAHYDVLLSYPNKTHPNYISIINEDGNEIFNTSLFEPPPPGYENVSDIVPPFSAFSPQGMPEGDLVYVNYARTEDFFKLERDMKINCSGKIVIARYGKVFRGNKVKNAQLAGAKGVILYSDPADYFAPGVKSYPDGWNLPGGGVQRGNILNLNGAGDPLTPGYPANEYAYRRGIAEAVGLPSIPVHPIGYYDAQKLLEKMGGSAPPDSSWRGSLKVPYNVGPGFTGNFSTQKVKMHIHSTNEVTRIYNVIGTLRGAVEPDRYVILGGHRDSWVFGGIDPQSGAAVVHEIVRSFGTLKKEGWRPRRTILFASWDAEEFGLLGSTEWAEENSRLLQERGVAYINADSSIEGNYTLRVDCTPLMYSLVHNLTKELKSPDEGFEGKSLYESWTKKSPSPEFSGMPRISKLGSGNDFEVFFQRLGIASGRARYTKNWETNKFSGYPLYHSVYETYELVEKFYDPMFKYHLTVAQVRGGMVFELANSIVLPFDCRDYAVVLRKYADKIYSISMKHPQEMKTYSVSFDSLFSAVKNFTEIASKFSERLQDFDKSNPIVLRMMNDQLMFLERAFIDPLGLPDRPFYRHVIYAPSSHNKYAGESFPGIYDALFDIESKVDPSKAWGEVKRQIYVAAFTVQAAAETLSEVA
Assay: In vitro GCPII inhibition assay, fluorescence-based, RP-HPLC readout (screening at 20 μM and IC50)
Type: biochemical
Conditions: compound at 20 μM; 100 nM fluorescein-labeled Glu-Glu dipeptide substrate; read-out: Inhibition [%] of GCPII activity
In this section we review reported inhibition at 20 µM values for a set of molecules.
Response body: numeric value in %, unit text excluded.

Before answering, review these 5 worked examples.
# molecule, measurement
records = [
    ("COc1ccc(Cl)cc1NC(=O)c1ccc(C(=O)O)cc1C(=O)O [Compound 13]", 0),
    ("Cc1c(C)c(CC(C(=O)O)C(=O)O)c(C)c(C)c1CC(C(=O)O)C(=O)O [Compound 47]", 24),
    ("COc1ccc([C@H](C)NC(=O)c2cc(C(=O)O)ccc2C(=O)O)cc1 [Compound 8]", 1),
    ("O=C(O)CCCC(=O)Nc1cccc(C(=O)O)c1 [Compound 35]", 1),
    ("CC(=O)c1ccc(NC(=O)c2ccc(C(=O)O)cc2C(=O)O)cc1 [Compound 38]", 0),
]

Query: inhibition at 20 µM; subject: O=C(O)CCN(CCC(=O)O)c1ccc(/C=C/c2ccnc3ccccc23)cc1 [Compound 27]
18

Suppose we examine the molecule O=C(O)c1ccc(C(=O)Nc2ccc(Oc3ccccc3)cc2)c(C(=O)O)c1 [Compound 41] ; what inhibition at 20 µM value has been reported?
0

====

Target: Recombinant human GCPII (Homo sapiens)
Construct: made in house
Assay: In vitro GCPII inhibition assay, fluorescence-based, RP-HPLC readout (screening at 20 μM and IC50)
Format: biochemical
Settings: compound at 20 μM; 100 nM fluorescein-labeled Glu-Glu dipeptide substrate; read-out: Inhibition [%] of GCPII activity
measured-quantity: inhibition at 20 µM

Answered cases to consult:
# compound, inhibition at 20 µM
measured = [
    ("O=C(O)c1cc(C(=O)O)c(C(=O)O)cc1C(=O)O [Compound 24]", "> 25%"),
    ("Nc1cc(N)c(C(=O)O)cc1C(=O)O [Compound 28]", "> 25%"),
    ("O=[N+]([O-])c1ccc(C(CCc2nnn[nH]2)(CCc2nnn[nH]2)c2nnn[nH]2)cc1 [Compound 18]", "> 50%"),
]

// returns reported inhibition at 20 µM for input CC(C)(CC(=O)Nc1scc(-c2cccs2)c1C(=O)O)CC(=O)Nc1scc(-c2cccs2)c1C(=O)O [Compound 22]
> 25%
